Molecular target: T1, tip-chimeric peptide IhfA5-mIhfB4NTHI (nontypeable Haemophilus influenzae …)
T1 construct: also called IHF(NTHI) tip chimeric peptide; IHFNTHI tip chimeric peptide
T1 peptide: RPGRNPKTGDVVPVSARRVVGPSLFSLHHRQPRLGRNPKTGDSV
Assay: direct ELISA #2, peptide coated (curves reaching equilibrium)
Bucketed by reported EC50, buckets being low = under 0.06 µg/mL, moderate = from 0.06 µg/mL up to 0.09 µg/mL, high = 0.09 µg/mL and over

Sample answers from the record:
binder="humanized anti-tip monoclonal antibody, heavy chain SEQ ID NO: 3 and light chain SEQ ID NO: 7 (antibody, V domains shown, also called H10212 (1F8.F1 Humanized HC3) + L10210 (1F8.F1 Humanized LC1)) VH: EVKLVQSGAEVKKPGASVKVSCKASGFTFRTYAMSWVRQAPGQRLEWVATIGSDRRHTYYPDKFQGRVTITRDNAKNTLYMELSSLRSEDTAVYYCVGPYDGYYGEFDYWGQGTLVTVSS VL: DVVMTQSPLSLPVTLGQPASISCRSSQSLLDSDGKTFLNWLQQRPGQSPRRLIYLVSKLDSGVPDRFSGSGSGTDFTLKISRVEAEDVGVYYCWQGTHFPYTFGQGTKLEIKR" classification=moderate
binder="humanized anti-tip monoclonal antibody, heavy chain SEQ ID NO: 2 and light chain SEQ ID NO: 7 (antibody, V domains shown, also called H10211 (1F8.F1 Humanized HC2) + L10210 (1F8.F1 Humanized LC1)) VH: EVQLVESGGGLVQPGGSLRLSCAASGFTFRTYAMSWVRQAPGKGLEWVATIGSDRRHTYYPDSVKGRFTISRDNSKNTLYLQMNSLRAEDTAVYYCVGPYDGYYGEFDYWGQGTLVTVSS VL: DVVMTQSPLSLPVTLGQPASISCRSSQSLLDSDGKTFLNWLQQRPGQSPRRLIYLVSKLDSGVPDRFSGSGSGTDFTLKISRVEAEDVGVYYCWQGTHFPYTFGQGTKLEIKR" classification=moderate
binder="humanized anti-tip monoclonal antibody, heavy chain SEQ ID NO: 1 and light chain SEQ ID NO: 7 (antibody, V domains shown, also called HuTipMab; TP-21949) VH: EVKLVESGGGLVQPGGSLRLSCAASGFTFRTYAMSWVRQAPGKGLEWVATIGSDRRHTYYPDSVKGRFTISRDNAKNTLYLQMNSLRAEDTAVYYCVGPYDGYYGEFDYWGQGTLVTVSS VL: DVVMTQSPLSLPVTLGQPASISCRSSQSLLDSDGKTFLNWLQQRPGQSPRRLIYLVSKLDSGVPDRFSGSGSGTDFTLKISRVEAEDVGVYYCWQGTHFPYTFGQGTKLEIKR" classification=moderate
binder="humanized anti-tip monoclonal antibody, heavy chain SEQ ID NO: 1 and light chain SEQ ID NO: 9 (antibody, V domains shown, also called H10210 (1F8.F1 Humanized HC1) + L10212 (1F8.F1 Humanized LC3)) VH: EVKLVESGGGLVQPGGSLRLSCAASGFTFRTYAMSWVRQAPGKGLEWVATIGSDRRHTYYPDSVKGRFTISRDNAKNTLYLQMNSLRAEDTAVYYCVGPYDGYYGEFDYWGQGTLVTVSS VL: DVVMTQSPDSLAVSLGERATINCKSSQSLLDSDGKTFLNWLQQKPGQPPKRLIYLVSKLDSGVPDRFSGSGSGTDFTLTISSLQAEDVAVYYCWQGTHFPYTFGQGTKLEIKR" classification=low
binder="humanized anti-tip monoclonal antibody, heavy chain SEQ ID NO: 3 and light chain SEQ ID NO: 9 (antibody, V domains shown, also called H10212 (1F8.F1 Humanized HC3) + L10212 (1F8.F1 Humanized LC3)) VH: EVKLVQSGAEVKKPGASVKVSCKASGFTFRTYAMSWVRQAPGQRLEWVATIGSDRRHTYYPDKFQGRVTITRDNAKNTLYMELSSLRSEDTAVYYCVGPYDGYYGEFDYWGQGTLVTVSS VL: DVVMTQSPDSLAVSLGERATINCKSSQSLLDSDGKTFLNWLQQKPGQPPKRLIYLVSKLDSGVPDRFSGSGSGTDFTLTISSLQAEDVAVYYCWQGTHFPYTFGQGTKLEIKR" classification=high

Query: In plain terms, what class is humanized anti-tip monoclonal antibody, heavy chain SEQ ID NO: 2 and light chain SEQ ID NO: 8 (antibody, V domains shown, also called H10211 (1F8.F1 Humanized HC2) + L10211 (1F8.F1 Humanized LC2)) VH: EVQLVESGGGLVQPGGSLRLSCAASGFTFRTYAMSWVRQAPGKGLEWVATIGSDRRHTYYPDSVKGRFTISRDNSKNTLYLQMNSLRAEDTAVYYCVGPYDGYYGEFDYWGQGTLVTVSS VL: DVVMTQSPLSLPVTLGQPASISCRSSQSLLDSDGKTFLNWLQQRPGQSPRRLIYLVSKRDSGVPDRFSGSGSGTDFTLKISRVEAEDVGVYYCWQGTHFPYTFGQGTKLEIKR ?
Reply: low

Query: Same read-out for humanized anti-tip monoclonal antibody, heavy chain SEQ ID NO: 2 and light chain SEQ ID NO: 9 (antibody, V domains shown, also called H10211 (1F8.F1 Humanized HC2) + L10212 (1F8.F1 Humanized LC3)) VH: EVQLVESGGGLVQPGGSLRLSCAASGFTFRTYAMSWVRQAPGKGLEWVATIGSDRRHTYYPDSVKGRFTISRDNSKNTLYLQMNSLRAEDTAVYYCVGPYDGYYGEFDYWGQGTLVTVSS VL: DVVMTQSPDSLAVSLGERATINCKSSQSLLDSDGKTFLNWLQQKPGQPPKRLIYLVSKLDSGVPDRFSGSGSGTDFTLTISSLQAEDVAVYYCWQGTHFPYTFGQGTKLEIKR ?
Reply: low

Query: Same read-out for humanized anti-tip monoclonal antibody, heavy chain SEQ ID NO: 3 and light chain SEQ ID NO: 8 (antibody, V domains shown, also called H10212 (1F8.F1 Humanized HC3) + L10211 (1F8.F1 Humanized LC2)) VH: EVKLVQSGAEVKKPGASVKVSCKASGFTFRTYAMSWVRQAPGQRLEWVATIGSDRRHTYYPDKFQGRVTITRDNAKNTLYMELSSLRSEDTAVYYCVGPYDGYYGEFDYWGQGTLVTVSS VL: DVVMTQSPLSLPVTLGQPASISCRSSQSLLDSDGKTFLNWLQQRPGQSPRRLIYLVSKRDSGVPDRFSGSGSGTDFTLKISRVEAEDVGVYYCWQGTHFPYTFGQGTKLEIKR ?
Reply: high

Query: Same read-out for humanized anti-tip monoclonal antibody, heavy chain SEQ ID NO: 1 and light chain SEQ ID NO: 8 (antibody, V domains shown, also called H10210 (1F8.F1 Humanized HC1) + L10211 (1F8.F1 Humanized LC2)) VH: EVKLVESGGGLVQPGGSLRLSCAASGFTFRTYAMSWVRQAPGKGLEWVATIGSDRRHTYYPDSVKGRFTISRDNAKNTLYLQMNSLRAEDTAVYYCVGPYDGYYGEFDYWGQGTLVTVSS VL: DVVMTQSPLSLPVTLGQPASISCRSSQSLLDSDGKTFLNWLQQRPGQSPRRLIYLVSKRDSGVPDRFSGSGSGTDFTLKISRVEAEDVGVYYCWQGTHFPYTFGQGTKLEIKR ?
Reply: moderate
